target: T1, human melanocortin 4 receptor (human, UniProt P32245 1-332); assay: competition with 125-NDP-α-MSH, BHK human MC4R membranes
T1 construct: whole, on cells; cAMP assay on whole BHK cells; also called MC4R; human MC4 receptor
T1 sequence (P32245 whole entry): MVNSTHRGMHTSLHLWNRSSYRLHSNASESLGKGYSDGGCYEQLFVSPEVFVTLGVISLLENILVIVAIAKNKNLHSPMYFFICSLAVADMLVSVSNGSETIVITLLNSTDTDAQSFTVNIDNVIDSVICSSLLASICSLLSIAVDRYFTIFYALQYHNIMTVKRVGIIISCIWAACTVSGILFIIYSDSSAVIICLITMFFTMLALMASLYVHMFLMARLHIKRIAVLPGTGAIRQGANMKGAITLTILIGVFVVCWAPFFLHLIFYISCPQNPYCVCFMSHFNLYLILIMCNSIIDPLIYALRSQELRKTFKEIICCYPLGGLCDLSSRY
Positions of bridges follow the written chain, without caps; N, C: chain ends. Non-standard residues stand in square brackets, D forms with d. Pro(trans-4-guanidino) = N=C(N)N[C@H]1CN[C@H](C(=O)O)C1
metric: pKi
One number for each entry, as −log10 of the molar value.

Form field: reported pKi of cyclo(CAH[dF][Pro(trans-4-guanidino)]WCAH[dF][Pro(trans-4-guanidino)]W) (disulfide 1-7; SMILES C[C@@H]1NC(=O)[C@@H]2CSSC[C@H](NC(=O)[C@H](Cc3c[nH]c4ccccc34)NC(=O)[C@@H]3C[C@@H](NC(=N)N)CN3C(=O)[C@@H](Cc3ccccc3)NC(=O)[C@H](Cc3c[nH]cn3)NC1=O)C(=O)N[C@@H](C)C(=O)N[C@@H](Cc1c[nH]cn1)C(=O)N[C@H](Cc1ccccc1)C(=O)N1C[C@H](NC(=N)N)C[C@H]1C(=O)N[C@@H](Cc1c[nH]c3ccccc13)C(=O)N2, also called c[c[Cys-Ala-His-D-Phe-4trans-GuaPro-Trp-Cys]-Ala-His-D-Phe-4trans-GuaPro-Trp]) [Chem. 28]
6.05
